B1: ZNF649 (parent)
chain: YHTGKTPFVCPECGQPCSQKSGLI

- Variants of: B1
- test_summary: protein stability index of a GFP-peptide fusion (GPS, HEK-293T) (PSI 1-6); higher = more stable;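 further: lentivirally expressed fusions sorted by FACS into six bins by GFP to DsRed ratio, PSI derived from sequencing read proportions per bin multiplied by bin number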
- conditions: c terminus: a fixed tail appended
result_type: protein stability index
// return a plain number; no unit text

stdin: protein stability index lookup needed for `C10D` , thanks.
stdout: 1.61

stdin: Try this variant too: `V9Y`
stdout: 3.65

stdin: Also `S18I` , if possible.
stdout: 2.47

stdin: Next variant up: `C10E`
stdout: 1.33
